Ref: patent US7141603B2

test system: MV522 (human lung carcinoma cell line); experiment: Test A in vitro cytotoxicity, 2 hour exposure, [3H]-thymidine incorporation; format: cell-based; settings: read-out: 2 hour IC50 MV522, mean ± 1 standard deviation
I'd appreciate it if you could supply IC50 values for the items below.

So what's the measured IC50 for this one? COCC1=C(CO)C=C2C(=O)C(C)(O)C3(CC3)C(C)=C21 (stereo not shown) [Compound 8]
> 80 µM

So what's the measured IC50 for this one? CC(=O)OCC1=CC2=C(C)C3(CC3)C(C)(O)C(=O)C2=C1 (stereo not shown) [Compound 3]
19.6 µM

So what's the measured IC50 for this one? CC(=O)OCC1=C(CO)C=C2C(=O)C(C)(O)C3(CC3)C(C)=C21 (stereo not shown) [Compound 4]
20.4 µM

So what's the measured IC50 for this one? CC1=C2C(=CC(CO)=C2CO)C(=O)C(C)(O)C12CC2 (stereo not shown) [Compound 2]
11.3 µM

So what's the measured IC50 for this one? COCC1=C(COC)C2=C(C)C3(CC3)C(C)(O)C(=O)C2=C1 (stereo not shown) [Compound 9]
> 50 µM

So what's the measured IC50 for this one? CC(=O)N[C@@H](CSCC1=C(C)C=C2C(=O)C(C)(O)C3(CC3)C(C)=C21)C(=O)N[C@H](C)c1ccccc1 (stereo partly shown) [Compound 14]
3.05 µM

So what's the measured IC50 for this one? CC(=O)N[C@@H](CSCC1=C(C)C=C2C(=O)C(C)(O)C3(CC3)C(C)=C21)C(=O)O (stereo partly shown) [Compound 13]
10 µM

----------
system: MV522 lung carcinoma xenograft; assay: Test B in vivo MV522 lung carcinoma xenograft; conditions: i.p. QD×5 on days 10-14; day ten = 1.0; dose: 1 14 mg/kg, 2 35 mg/kg, 13 32 mg/kg, 14 28 mg/kg
I'd appreciate it if you could supply relative tumor weight Wt/Wi Day 24 values for the items below.
Form field (numeric): enter value without unit.

What is its relative tumor weight Wt/Wi Day 24 for MV522 lung carcinoma xenograft? Entry: CC(=O)N[C@@H](CSCC1=C(C)C=C2C(=O)C(C)(O)C3(CC3)C(C)=C21)C(=O)O (stereo partly shown)
4.1

What is its relative tumor weight Wt/Wi Day 24 for MV522 lung carcinoma xenograft? Entry: CC1=C2C=C(CO)C=C2C(=O)C(C)(O)C12CC2 (stereo not shown)
7.0

What is its relative tumor weight Wt/Wi Day 24 for MV522 lung carcinoma xenograft? Entry: CC1=C2C(=CC(CO)=C2CO)C(=O)C(C)(O)C12CC2 (stereo not shown)
3.3

What is its relative tumor weight Wt/Wi Day 24 for MV522 lung carcinoma xenograft? Entry: CC(=O)N[C@@H](CSCC1=C(C)C=C2C(=O)C(C)(O)C3(CC3)C(C)=C21)C(=O)N[C@H](C)c1ccccc1 (stereo partly shown)
4.1

----------
tested on: HL60 (myeloid leukemia cells); assay: Test A in vitro cytotoxicity, 2 hour exposure, [3H]-thymidine incorporation; assay type: cell-based; conditions: read-out: 2 hour IC50 HL60, mean ± 1 standard deviation
I'd appreciate it if you could supply pIC50 values for the items below.
// pIC50 is dimensionless: -log10 of concentration (M)

So what's the measured pIC50 for this one? CC(=O)OCC1=C(COC(C)=O)C2=C(C)C3(CC3)C(C)(O)C(=O)C2=C1 (stereo not drawn) [Compound 5]
4.42

So what's the measured pIC50 for this one? COCC1=C(COC)C2=C(C)C3(CC3)C(C)(O)C(=O)C2=C1 (stereo not drawn) [Compound 9]
4.30

So what's the measured pIC50 for this one? COCC1=CC2=C(C)C3(CC3)C(C)(O)C(=O)C2=C1 (stereo not drawn) [Compound 7]
5.22

So what's the measured pIC50 for this one? CC(=O)OCC1=CC2=C(C)C3(CC3)C(C)(O)C(=O)C2=C1 (stereo not drawn) [Compound 3]
4.81
